Reference source for all entries: PubChem BioAssay (NCI)

tested on: OVCAR-8 ovarian; assay: NCI tumour cell line growth inhibition, 48 h; in the data active = GI50 below about 0.43 µM; inactive = the rest
Mark one answer only. Choices: YES for active, NO for inactive

Field: example entries. Status: answers known.
[
  {
    "Compound": "c1ccc(-c2c(-c3ccccc3)[n+](Cc3ccc4ccccc4c3)c(-c3cccc4ccccc34)n2Cc2ccc3ccccc3c2)cc1",
    "Classification": "YES"
  },
  {
    "Compound": "CCCC(c1nnnn1C1CCCCC1)N1CCN(C(=O)c2ccco2)CC1 (stereo not given)",
    "Classification": "NO"
  }
]

Field: outcome | Entry: Cc1ccc(-c2c(C#N)[n+](=O)c3cc(Cl)c(Cl)cc3n2[O-])cc1
NO

Field: outcome | Entry: Clc1ccc(CCC(Cn2ccnc2)Sc2c(Cl)cccc2Cl)cc1 (stereo not given)
NO

Field: outcome | Entry: Cc1cc(-c2ncc(-c3cccnc3)cc2/C=C/c2ccccc2)cnc1-c1cccnc1
NO

Field: outcome | Entry: COc1ccc(Nc2nccc(Nc3ccc4[nH]ncc4c3)n2)cc1
NO
